melting point by entry:

Example molecules with recorded melting point:
Molecule	Result
O=C(O)c1cccnc1Sc1ccc2c(c1)OCCO2	228 to 230 °C
COc1ccc(C(=O)NC2CCS(=O)(=O)C2)cc1N (stereo not drawn)	145 to 147 °C
CC(CC(=O)O)c1ccccc1Br (stereo not drawn)	61 to 63 °C
CC(C)(C)c1cc(CCC(=O)O)cc(C(C)(C)C)c1O	165 to 167 °C
CCc1cccc(C)c1NC(=O)CCl	100 to 110 °C

According to the records, this molecule "Cc1nc(-c2ccc(Cl)nc2)[nH]c(=O)c1C" displays melting point of 263 to 265 °C

According to the records, this molecule O=C(O)C1CC1C(=O)N1CCN(c2ccccc2)CC1 (stereo not drawn) displays melting point of 155 to 157 °C

According to the records, this molecule N#CC(N)Cc1ccccc1 (stereo not drawn) displays melting point of 39 to 41 °C

According to the records, this molecule "Nc1ccc2c(ccn2CC(=O)N2CCOCC2)c1" displays melting point of 209 to 211 °C

According to the records, this molecule O=C1NCCCCC1Oc1ccc(O)cc1 (stereo not drawn) displays melting point of 219 to 221 °C
